B1: SNX3 (parent)
chain: FLRQLPFRGDDGIFDDNFIEERKQ

# Variants of: B1
# Measurement notes: protein stability index of a GFP-peptide fusion (GPS, HEK-293T) (PSI 1-6); higher = more stable;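 note: lentivirally expressed fusions sorted by FACS into six bins by GFP to DsRed ratio, PSI derived from sequencing read proportions per bin multiplied by bin number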
# Condition parameters: c terminus: a fixed tail appended
Measurement label: protein stability index
API note: the answer field is a bare number with no unit suffix.

Here's what some known entries look like.
Q. Data request, read-out protein stability index, for F14D
A. 4.79

Q. Data request, read-out protein stability index, for E21L
A. 3.34

Q. Data request, read-out protein stability index, for L2S
A. 4.56

Pending variant:
Q. Data request, read-out protein stability index, for D10K
A. 3.41
